study_target: Aldehyde dehydrogenase, mitochondrial (Homo sapiens) (UniProt P05091)
protocol: qHTS for Inhibitors of the Aldehyde Dehydrogenase Family (ALDH2) Primary screen (AID 2061308); further: nearly all actives have a fitted effect of over 55% in size
run_conditions: ALDH2 enzyme inhibition qHTS, 1536-well; series mostly up to 56 µM
Inconclusive results are not listed. The source made the active and inactive calls. The call rests on the fitted dose curve; in most records, active means well fitted inhibition curve with a large enough effect; inconclusive means small, poorly fitted or top-dose-only effect; inactive means flat fitted curve, though single readings scatter.
endpoint: activity change, negative = inhibition

{"columns": ["compound", "assay_result"],
 "data": [
  ["CC1(C)CC(=O)c2c(C(F)(F)F)nn(-c3ccc(C(N)=O)c(NC4CCC(O)CC4)c3)c2C1 (stereo not drawn)", "inactive"],
  ["CCC[C@@H]1C[C@@H](C(=O)N[C@@H]([C@H]2O[C@H](SC)[C@H](O)[C@@H](O)[C@@H]2O)[C@@H](C)O)N(C)C1", "inactive"],
  ["Oc1ccc([C@H]2COc3cc(O)ccc3C2)cc1", "inactive"],
  ["CCNC(=O)Nc1ccc(-c2nc3c(c(N4CCOCC4C)n2)CCN(C2COC2)C3)cc1 (stereo not drawn)", "inactive"]
]}

Problem: Could you tell me which activity change, negative = inhibition is on file for CC1(C)CC[C@]2(C(=O)O)[C@H](O)C[C@]3(C)C(=CCC4[C@@]5(C)CC[C@H](O[C@@H]6O[C@H](CO[C@@H]7OC[C@H](O)[C@H](O)[C@H]7O[C@@H]7OC[C@@H](O)[C@H](O)[C@H]7O)[C@@H](O)[C@H](O)[C@H]6O[C@@H]6O[C@H](CO)[C@@H](O)[C@H](O)[C@H]6O)C(C)(C)C5CC[C@]43C)[C@@H]2C1 (stereo partly drawn) ?
Result: inactive

Problem: What value of activity change, negative = inhibition has been recorded for this entry: CC1=CC2/C=C(\C)CCC3OC(C)(C)OC3CCC(=O)C23C(=O)NC(CC(C)C)C3C1C (stereo not drawn)
Result: inactive

Problem: Quick one: activity change, negative = inhibition of CCCC(=O)NCCc1csc(-c2ccc(Cl)cc2)n1 ?
Result: inactive

Problem: What value of measured activity change, negative = inhibition is listed for CNC(=O)c1cc(Oc2ccc(NC(=O)Nc3ccc(Cl)c(C(F)(F)F)c3)c(F)c2)ccn1 ?
Result: inactive

###

protocol: BET inhibitor-based combinations targeting novel dependencies in MECOM-rearranged (r) AML: UCSD-AML1 cell line (AID 2202235); further: nearly all actives have a fitted effect of over 40% in size
run_conditions: UCSD-AML1 AML cells viability, CellTiter-Glo, 48 h; series mostly up to 46 µM
Results filed as inconclusive are left out. The source made the active and inactive calls. Calls come from the whole dose curve; as a rule, active = well fitted inhibition curve with a large enough effect; inconclusive = small, poorly fitted or top-dose-only effect; inactive = no such curve, though single readings can be large or run the other way. Positions of bridges follow the written chain, without caps; N, C: chain ends. Non-standard residues stand in square brackets, D forms with d. Residues, ends and D or L forms follow the SMILES beside them. *: point of attachment. X1 = CCC(C)C(N)C1=NC(C(=O)*)CS1; dOrn = NCCC[C@@H](N)C(=O)O
endpoint: outcome

{"columns": ["compound", "endpoint", "assay_result"],
 "data": [
  ["OC[C@H]1O[C@@H](O[C@@H]2[C@@H](CO)O[C@](O)(CO)[C@H]2O)[C@H](O)[C@@H](O)[C@H]1O", "outcome", "inactive"],
  ["CCC(C)C(N)C1=NC(C(=O)N[C@@H](CC(C)C)C(=O)N[C@H](CCC(=O)O)C(=O)N[C@H](C(=O)N[C@H]2CCCCNC(=O)[C@H](CC(N)=O)NC(=O)[C@@H](CC(=O)O)NC(=O)[C@H](Cc3cnc[nH]3)NC(=O)[C@@H](Cc3ccccc3)NC(=O)[C@H]([C@@H](C)CC)NC(=O)[C@@H](CCCN)NC2=O)[C@@H](C)CC)CS1 (some centres not stated) (X1-L[dE]IK[dOrn]I[dF]H[dD]N; lactam 4-C)", "outcome", "inactive"]
]}
